Biological target: PRMT5/MEP50 complex (Homo sapiens)
Sequence (O14744 whole entry, the tested form may be a part): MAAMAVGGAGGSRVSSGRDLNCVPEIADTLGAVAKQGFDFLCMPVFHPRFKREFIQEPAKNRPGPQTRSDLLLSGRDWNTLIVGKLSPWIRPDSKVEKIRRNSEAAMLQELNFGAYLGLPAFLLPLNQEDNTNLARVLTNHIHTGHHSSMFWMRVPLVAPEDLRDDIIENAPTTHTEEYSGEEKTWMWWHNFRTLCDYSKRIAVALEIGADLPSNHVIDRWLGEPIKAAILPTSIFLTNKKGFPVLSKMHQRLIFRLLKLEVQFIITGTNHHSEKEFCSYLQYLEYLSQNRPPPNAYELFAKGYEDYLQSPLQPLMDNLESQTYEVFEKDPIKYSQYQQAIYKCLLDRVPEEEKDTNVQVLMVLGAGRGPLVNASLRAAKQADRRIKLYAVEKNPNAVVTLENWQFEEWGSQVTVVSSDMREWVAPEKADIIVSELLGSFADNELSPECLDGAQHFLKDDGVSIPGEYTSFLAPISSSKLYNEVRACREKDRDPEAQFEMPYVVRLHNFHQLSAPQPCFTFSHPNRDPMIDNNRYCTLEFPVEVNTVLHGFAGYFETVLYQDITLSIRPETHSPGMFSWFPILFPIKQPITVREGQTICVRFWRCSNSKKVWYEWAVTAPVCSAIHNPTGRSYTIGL
Sequence (Q9BQA1 whole entry, further chain, the tested form may be a part): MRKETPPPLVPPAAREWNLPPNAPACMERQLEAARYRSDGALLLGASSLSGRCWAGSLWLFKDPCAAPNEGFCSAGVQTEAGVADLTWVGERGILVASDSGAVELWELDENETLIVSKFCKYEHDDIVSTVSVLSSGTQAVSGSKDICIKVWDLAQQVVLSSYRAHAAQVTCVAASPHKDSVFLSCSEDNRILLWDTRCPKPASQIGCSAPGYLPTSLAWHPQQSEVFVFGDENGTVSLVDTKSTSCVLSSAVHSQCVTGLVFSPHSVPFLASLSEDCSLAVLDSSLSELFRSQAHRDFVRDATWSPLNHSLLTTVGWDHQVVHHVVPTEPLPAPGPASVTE
Experiment: Inhibition of recombinant human fetal brain FLAG-tagged PRMT5/full length human testis 6His-tagged MEP50 expressed in baculovirus infected insect Sf9 cells using human histone H4 (1 to 15 residues) as substrate preincubated for 30 mins followed by [3H]-SAM addition
recorded-endpoint: IC50

O=C(COc1cccc2cccnc12)NC[C@@H](O)CN1Cc2ccccc2C1 = 1 to 10 µM

Supply measured IC50 of OC(COc1cccc(-c2ccc3ncn(C4CNC4)c3c2)c1)CN1CCc2ccccc2C1 (stereo unspecified) in your reply.
0.101 to 1 µM

Return IC50 for the following compound: `O[C@@H](COc1cccc(CNC2CCCC2)c1)CN1CCc2ccccc2C1`
1 to 10 µM
